# ASSAY_PROCEDURE: Tmax in Beagle dog at 1 mg/kg, po and 0.3 mg/kg, iv measured upto 24 hrs by LC/MS/MS analysis
# Assay type: ADME, organism-based, Canis lupus familiaris
# CONDITION_INFO: in vivo
ENDPOINT: Tmax (min)
One number for each entry, in min.

Fill blank: measured Tmax of the molecule "C[C@@H]1COCCN1c1cc(N2CCOC[C@@H]2C)nc2[nH]c(-c3ccccn3)nc12" is ____.
48

###

# TESTED_SYSTEM: Serine/threonine-protein kinase mTOR (Mus musculus)
# ASSAY_PROCEDURE: Inhibition of mTOR in TSC1 knockout mouse MEF cells assessed as reduction in phosphorylated S6 level at serine 240/244 residues incubated for 2 hrs by Hoechst/Alexa Fluor 647 staining based analysis
# Format: cell-based
ENDPOINT: pIC50
Answers are plain numbers, as −log10 of the molar value.

// worked examples, pIC50 included
INSERT INTO measurements (compound_structure, endpoint, value_observed) VALUES
  ('C[C@@H]1COCCN1c1nc(N2CCOC[C@@H]2C)nc2[nH]c(-c3cc[nH]n3)nc12', 'pIC50', 7.80),
  ('C[C@@H]1COCCN1c1nc(N2CCOC[C@@H]2C)cc2[nH]c(-c3cc[nH]n3)nc12', 'pIC50', 7.34);

Attention now shifts to the item below.
Checklist item: pIC50 tested on Serine/threonine-protein kinase mTOR (Mus musculus), entry "C[C@@H]1COCCN1c1cc(N2CCOC[C@@H]2C)cc2sc(-c3cc[nH]n3)nc12" , value?
7.82

###

# ASSAY_PROCEDURE: MRT(0 to t) in Beagle dog at 1 mg/kg, po and 0.3 mg/kg, iv measured upto 24 hrs by LC/MS/MS analysis
# Format: ADME, organism-based, Canis lupus familiaris
# CONDITION_INFO: in vivo
ENDPOINT: MRT last at 24 h (min)
One number for each entry, in min.

Fill blank: measured MRT last at 24 h of the compound "C[C@@H]1COCCN1c1cc(N2CCOC[C@@H]2C)nc2[nH]c(-c3ccccn3)nc12" is ____.
54

###

# ASSAY_PROCEDURE: Cmax in po dosed C57BL/6 mouse measured upto 24 hrs by HPLC-MS analysis
# Format: ADME, organism-based
# Set-up: time < 24 hrs, route po
# CONDITION_INFO: in vivo
Consider the following molecules; for each one, report its Cmax.
One number for each entry, in nM.

INSERT INTO measurements (compound_structure, endpoint, readout_unit, value_observed) VALUES
  ('C[C@@H]1COCCN1c1cc(N2CCOC[C@@H]2C)nc2[nH]c(-c3ccccn3)nc12', 'Cmax', 'nM', 1260);

Attention now shifts to the item below.
Fill blank: measured Cmax of the molecule "C[C@@H]1COCCN1c1cc(N2CCOC[C@@H]2C)nc2[nH]c(-c3cscn3)nc12" is ____.
1920

###

# ASSAY_PROCEDURE: Ratio of drug concentration in brain to plasma in C57BL/6 mouse at 30 mg/kg, po measured at 1 hr
# Assay type: ADME, organism-based
# CONDITION_INFO: brain and plasma, read-out: BPR
ENDPOINT: Kp at 1 h
One number for each entry.

INSERT INTO assay_data (compound_structure, value_observed) VALUES
  ('C[C@@H]1COCCN1c1cc(N2CCOC[C@@H]2C)nc2[nH]c(-c3cscn3)nc12', 1.29);

Attention now shifts to the item below.
Fill blank: measured Kp at 1 h of the molecule "C[C@@H]1COCCN1c1cc(N2CCOC[C@@H]2C)nc2[nH]c(-c3ccccn3)nc12" is ____.
1.03

###

# ASSAY_PROCEDURE: Ratio of drug concentration in brain to plasma in C57BL/6 mouse at 1 mg/kg, po measured at 1 hr
# Assay type: ADME, organism-based
# CONDITION_INFO: read-out: BPR
ENDPOINT: Kp at 1 h
Answers are plain numbers.

Fill blank: measured Kp at 1 h of the compound "C[C@@H]1COCCN1c1cc(N2CCOC[C@@H]2C)nc2[nH]c(-c3cscn3)nc12" is ____.
0.51

###

Consider the following compounds; for each one, report its pIC50.
# TESTED_SYSTEM: Serine/threonine-protein kinase ATR (Homo sapiens, UniProt Q13535)
# Sequence (Q13535 whole entry): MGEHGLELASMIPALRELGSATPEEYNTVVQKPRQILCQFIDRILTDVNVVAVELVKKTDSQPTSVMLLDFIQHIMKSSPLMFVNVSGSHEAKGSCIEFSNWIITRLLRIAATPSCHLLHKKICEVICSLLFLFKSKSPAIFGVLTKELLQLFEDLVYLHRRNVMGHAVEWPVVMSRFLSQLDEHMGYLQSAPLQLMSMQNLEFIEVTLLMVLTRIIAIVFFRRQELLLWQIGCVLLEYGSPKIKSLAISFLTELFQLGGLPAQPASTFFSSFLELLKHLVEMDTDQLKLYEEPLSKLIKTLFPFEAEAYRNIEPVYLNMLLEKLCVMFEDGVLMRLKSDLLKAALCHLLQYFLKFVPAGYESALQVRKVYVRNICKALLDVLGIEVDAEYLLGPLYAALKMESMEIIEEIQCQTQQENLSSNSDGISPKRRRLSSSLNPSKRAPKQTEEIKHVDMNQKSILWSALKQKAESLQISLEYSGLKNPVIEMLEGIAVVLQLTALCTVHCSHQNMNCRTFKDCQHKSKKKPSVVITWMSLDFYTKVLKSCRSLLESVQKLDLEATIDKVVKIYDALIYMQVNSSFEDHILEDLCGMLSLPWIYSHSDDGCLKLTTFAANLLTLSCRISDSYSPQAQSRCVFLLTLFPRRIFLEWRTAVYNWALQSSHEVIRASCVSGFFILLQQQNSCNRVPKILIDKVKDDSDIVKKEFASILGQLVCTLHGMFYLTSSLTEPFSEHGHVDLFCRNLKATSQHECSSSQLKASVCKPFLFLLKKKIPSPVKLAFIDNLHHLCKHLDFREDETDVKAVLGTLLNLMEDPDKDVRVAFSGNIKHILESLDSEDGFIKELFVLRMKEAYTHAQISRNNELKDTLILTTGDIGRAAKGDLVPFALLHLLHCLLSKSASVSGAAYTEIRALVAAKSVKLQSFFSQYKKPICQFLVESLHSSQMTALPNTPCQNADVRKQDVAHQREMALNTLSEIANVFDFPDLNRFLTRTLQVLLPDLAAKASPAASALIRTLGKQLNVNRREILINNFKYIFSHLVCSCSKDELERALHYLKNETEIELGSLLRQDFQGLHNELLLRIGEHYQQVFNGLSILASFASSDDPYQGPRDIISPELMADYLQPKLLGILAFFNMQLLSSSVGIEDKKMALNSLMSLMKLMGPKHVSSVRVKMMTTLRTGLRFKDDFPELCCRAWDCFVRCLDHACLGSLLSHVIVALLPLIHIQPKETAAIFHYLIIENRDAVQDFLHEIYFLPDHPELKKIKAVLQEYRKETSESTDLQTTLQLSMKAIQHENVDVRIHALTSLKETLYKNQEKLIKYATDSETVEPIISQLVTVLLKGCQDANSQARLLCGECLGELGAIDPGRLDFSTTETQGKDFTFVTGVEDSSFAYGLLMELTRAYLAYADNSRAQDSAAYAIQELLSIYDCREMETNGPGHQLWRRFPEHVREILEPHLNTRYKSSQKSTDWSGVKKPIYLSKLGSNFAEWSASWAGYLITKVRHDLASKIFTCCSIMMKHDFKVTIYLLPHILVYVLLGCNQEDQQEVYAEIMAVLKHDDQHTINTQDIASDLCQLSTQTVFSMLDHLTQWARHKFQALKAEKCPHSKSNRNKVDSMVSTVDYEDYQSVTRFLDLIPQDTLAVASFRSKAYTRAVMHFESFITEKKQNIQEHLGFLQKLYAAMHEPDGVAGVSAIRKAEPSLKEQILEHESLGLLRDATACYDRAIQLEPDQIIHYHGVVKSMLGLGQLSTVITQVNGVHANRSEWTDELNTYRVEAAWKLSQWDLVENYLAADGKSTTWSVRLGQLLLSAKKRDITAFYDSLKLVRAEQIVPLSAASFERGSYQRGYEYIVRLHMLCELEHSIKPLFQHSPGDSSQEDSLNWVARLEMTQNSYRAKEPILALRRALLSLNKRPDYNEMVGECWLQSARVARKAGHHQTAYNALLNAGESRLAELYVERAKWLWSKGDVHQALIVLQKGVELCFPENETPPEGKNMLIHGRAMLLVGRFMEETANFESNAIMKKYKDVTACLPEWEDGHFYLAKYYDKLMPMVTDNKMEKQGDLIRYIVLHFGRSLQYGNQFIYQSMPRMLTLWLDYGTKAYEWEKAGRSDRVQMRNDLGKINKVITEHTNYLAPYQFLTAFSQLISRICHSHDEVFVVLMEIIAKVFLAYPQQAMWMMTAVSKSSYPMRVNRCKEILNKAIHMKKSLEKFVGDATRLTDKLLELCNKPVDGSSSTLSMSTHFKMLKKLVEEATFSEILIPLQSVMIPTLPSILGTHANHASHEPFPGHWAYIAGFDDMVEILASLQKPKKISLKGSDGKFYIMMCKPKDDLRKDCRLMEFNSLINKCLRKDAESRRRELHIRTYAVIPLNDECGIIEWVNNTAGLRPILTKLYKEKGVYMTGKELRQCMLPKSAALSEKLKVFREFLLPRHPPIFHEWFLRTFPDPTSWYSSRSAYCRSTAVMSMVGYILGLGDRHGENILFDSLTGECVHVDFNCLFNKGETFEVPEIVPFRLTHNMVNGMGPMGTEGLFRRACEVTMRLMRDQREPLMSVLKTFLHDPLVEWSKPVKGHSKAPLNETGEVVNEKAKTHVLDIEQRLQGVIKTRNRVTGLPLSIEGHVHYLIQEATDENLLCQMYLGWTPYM
Answers are plain numbers, as −log10 of the molar value.

INSERT INTO assay_data (compound_structure, value_observed) VALUES
  ('C[C@@H]1COCCN1c1cc(N2CCOC[C@@H]2C)nc2[nH]c(-c3cc(O)ccc3F)nc12', 5.15);

Attention now shifts to the item below.
Fill blank: measured pIC50 of the compound "C[C@@H]1COCCN1c1cc(N2CCOC[C@@H]2C)nc2[nH]c(-c3ccccn3)nc12" is ____.
4.76

###

# ASSAY_PROCEDURE: Volume of distribution at steady state in C57BL/6 mouse at 1 mg/kg, iv and 3 mg/kg, ip measured upto 24 hrs by HPLC-MS analysis
# Type: ADME, organism-based
# CONDITION_INFO: in vivo, read-out: Vdss
ENDPOINT: Vd

INSERT INTO assay_data (compound_structure, endpoint, value_observed) VALUES
  ('C[C@@H]1COCCN1c1cc(N2CCOC[C@@H]2C)nc2[nH]c(-c3cscn3)nc12', 'Vd', '2.8 L/kg');

Attention now shifts to the item below.
Fill blank: measured Vd of the compound "C[C@@H]1COCCN1c1cc(N2CCOC[C@@H]2C)nc2[nH]c(-c3ccccn3)nc12" is ____.
2.6 L/kg

###

Consider the following compounds; for each one, report its MRT last at 24 h.
# ASSAY_PROCEDURE: MRT(0 to t) in Sprague-Dawley rat at 3 mg/kg, po and 1 mg/kg, iv measured upto 24 hrs by HPLC-MS analysis
# Format: ADME, organism-based
# CONDITION_INFO: in vivo
Kindly report the value followed by its unit.

INSERT INTO assay_data (compound_structure, value_observed) VALUES
  ('C[C@@H]1COCCN1c1cc(N2CCOC[C@@H]2C)nc2[nH]c(-c3ccccn3)nc12', '2.3 h');

Attention now shifts to the item below.
Fill blank: measured MRT last at 24 h of the compound "C[C@@H]1COCCN1c1cc(N2CCOC[C@@H]2C)nc2[nH]c(-c3cscn3)nc12" is ____.
2.2 h

###

# ASSAY_PROCEDURE: Drug concentration in C57BL/6 mouse brain at 3 mg/kg, po measured after 24 hrs
# Format: ADME, organism-based
# CONDITION_INFO: read-out: Ct
ENDPOINT: concentration at 24 h (nM)
Give bare numbers, in nM.

Fill blank: measured concentration at 24 h of the compound "C[C@@H]1COCCN1c1cc(N2CCOC[C@@H]2C)nc2[nH]c(-c3cscn3)nc12" is ____.
5

###

# TESTED_SYSTEM: Phosphatidylinositol 4,5-bisphosphate 3-kinase catalytic subunit delta isoform (Homo sapiens)
# Sequence (O00329 whole entry, canonical isoform): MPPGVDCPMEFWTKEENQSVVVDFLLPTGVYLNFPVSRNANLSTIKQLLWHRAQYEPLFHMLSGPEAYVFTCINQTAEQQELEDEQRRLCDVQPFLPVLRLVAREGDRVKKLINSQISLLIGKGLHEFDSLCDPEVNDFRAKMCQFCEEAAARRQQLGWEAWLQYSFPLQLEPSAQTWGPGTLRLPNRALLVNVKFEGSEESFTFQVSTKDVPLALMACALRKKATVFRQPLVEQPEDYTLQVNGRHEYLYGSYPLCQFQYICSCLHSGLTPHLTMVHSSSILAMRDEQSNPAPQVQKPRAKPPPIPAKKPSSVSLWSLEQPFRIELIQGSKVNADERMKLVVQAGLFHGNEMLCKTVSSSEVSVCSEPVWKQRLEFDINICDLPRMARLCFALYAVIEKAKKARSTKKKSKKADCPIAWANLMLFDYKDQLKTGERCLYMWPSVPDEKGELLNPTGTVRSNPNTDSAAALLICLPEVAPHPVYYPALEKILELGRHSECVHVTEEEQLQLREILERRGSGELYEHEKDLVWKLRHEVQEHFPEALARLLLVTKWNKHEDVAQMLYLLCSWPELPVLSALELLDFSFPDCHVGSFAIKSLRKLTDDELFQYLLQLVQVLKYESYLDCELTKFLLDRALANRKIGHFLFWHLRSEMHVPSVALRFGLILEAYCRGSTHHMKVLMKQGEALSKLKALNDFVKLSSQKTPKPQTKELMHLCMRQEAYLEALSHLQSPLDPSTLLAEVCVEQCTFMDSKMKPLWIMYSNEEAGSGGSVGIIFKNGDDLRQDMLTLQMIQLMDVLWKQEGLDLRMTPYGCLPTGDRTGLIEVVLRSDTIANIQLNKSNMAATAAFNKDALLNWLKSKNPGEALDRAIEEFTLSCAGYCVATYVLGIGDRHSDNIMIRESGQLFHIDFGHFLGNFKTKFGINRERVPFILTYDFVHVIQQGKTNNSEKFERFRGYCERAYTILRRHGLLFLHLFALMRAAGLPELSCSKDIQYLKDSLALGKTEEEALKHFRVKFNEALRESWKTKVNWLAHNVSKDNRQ
# ASSAY_PROCEDURE: Inhibition of PI3Kdelta (unknown origin)
ENDPOINT: IC50

INSERT INTO results (compound_structure, endpoint, value_observed) VALUES
  ('C[C@@H]1COCCN1c1cc(N2CCOC[C@@H]2C)nc2[nH]c(-c3cscn3)nc12', 'IC50', '> 10 µM');

Fill blank: measured IC50 of the molecule "C[C@@H]1COCCN1c1cc(N2CCOC[C@@H]2C)nc2[nH]c(-c3ccccn3)nc12" is ____.
> 10 µM

###

# ASSAY_PROCEDURE: Bioavailability in cynomolgus monkey at 1 mg/kg, po and 0.1 mg/kg, iv measured upto 24 hrs by LC/MS/MS analysis
# Format: ADME, organism-based, Macaca fascicularis
# CONDITION_INFO: in vivo
ENDPOINT: bioavailability (%)
Numbers only, in %.

Fill blank: measured bioavailability of the compound "C[C@@H]1COCCN1c1cc(N2CCOC[C@@H]2C)nc2[nH]c(-c3cscn3)nc12" is ____.
110

###

# ASSAY_PROCEDURE: Drug concentration in C57BL/6 mouse brain at 10 mg/kg, po measured after 3 hrs
# Type: ADME, organism-based
# CONDITION_INFO: read-out: Ct
ENDPOINT: concentration at 3 h (nM)
Numbers only, in nM.

INSERT INTO measurements (compound_structure, readout_unit, value_observed) VALUES
  ('C[C@@H]1COCCN1c1cc(N2CCOC[C@@H]2C)nc2[nH]c(-c3cscn3)nc12', 'nM', 3250);

Attention now shifts to the item below.
Fill blank: measured concentration at 3 h of the compound "C[C@@H]1COCCN1c1cc(N2CCOC[C@@H]2C)nc2[nH]c(-c3ccccn3)nc12" is ____.
1110

###

# ASSAY_PROCEDURE: Drug concentration in C57BL/6 mouse brain at 10 mg/kg, po measured after 24 hrs
# Format: ADME, organism-based
# CONDITION_INFO: read-out: Ct
ENDPOINT: concentration at 24 h
Kindly report the value followed by its unit.

Fill blank: measured concentration at 24 h of the compound "C[C@@H]1COCCN1c1cc(N2CCOC[C@@H]2C)nc2[nH]c(-c3cscn3)nc12" is ____.
130 nM

Values from ChEMBL document CHEMBL5331134
